The following molecules are shown together with reported z-score values.
- assayDetails: plasmodial surface anion channel blockers, osmotic lysis – cell-based, P. falciparum Indochina, OD700, 2 h, primary screen (AID 1155);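 note: lysis reports solute entry through the parasite surface anion channel PSAC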
- conditionsUsed: P. falciparum Indochina infected erythrocytes, higher = more signal, called active from +8 up or from −8 down
Active and inactive are the calls of the source.
reportedMetric: z-score

>>> result("CCCNC(=O)[C@@]1(Sc2ccc(C)cc2)CC(=O)N(Cc2ccccc2)[C@@H]1c1ccc(CO)cc1I")
"0.815 (inactive)"
>>> result("COC(=O)c1c(CC[C@@H](CO)NC(=O)N[C@@H](C)Cn2cc(C3(O)CCCC3)nn2)oc(C(C)=O)c1C(=O)OC")
"-0.8 (inactive)"
>>> result("COc1ccc([Si](C)(C)[C@@H]2[C@@H](CCO)O[C@]3(C(=O)N(Cc4ccc(N5C(=O)c6ccccc6Oc6ccccc65)cc4)c4ccccc43)[C@H]2C)cc1")
"1.99 (inactive)"
>>> result("C[N+](C)(C)CCCC[C@@H]1NC(=O)[C@H]2C[C@@H](C(=O)NCCCCCCN)[C@@H](c3cccc(OCCO)c3)N2C1=O")
"0.156 (inactive)"
>>> result("CCCCCCCCCCC(O)C1C=CC2C(=O)NC(=O)C2N1Nc1ccccn1 (stereo not given)")
"6.41 (inactive)"
>>> result("C[C@@H]1ON(c2ccccc2)[C@H](c2ccccc2)[C@H]1C(=O)N1C(=O)OC[C@H]1Cc1ccccc1")
"0.282 (inactive)"
>>> result("COc1ccccc1CN1C(=O)c2ccccc2[C@](Cc2ccccc2I)(C(=O)NCCN2CCOCC2)[C@@H]1c1ccc(CO)cc1")
"0.349 (inactive)"
>>> result("C=C(COC)/C(=C/C[C@@H](OC(=O)c1ccncc1)c1cccc(OCCO)c1)c1cc(C(=O)OC)ccc1OC")
"4.64 (inactive)"
>>> result("[N-]=[N+]=Nc1ccccc1[C@@H]1OC(c2ccc(OCCCO)cc2)=N[C@]1(CCS(=O)(=O)c1ccccc1)C(=O)NCc1ccccc1")
"23.5 (active)"
>>> result("O=C1OCCC=C[C@H]2OC34C=CCN(Cn5nnc6ccccc65)C(=O)[C@H]3N(CCCCCO)C(=O)[C@@H]4C12 (stereo not given in full)")
"0.573 (inactive)"
>>> result("COC(=O)[C@]1(Cc2ccccc2CN=[N+]=[N-])N=C(c2ccc(OCCCO)cc2)O[C@@H]1c1ccccc1CN=[N+]=[N-]")
"24.1 (active)"
>>> result("COC(=O)C(CC#Cc1ccc2c(c1)[C@]1(C(=O)N2)[C@H](C(=O)N2CCc3cc(OC)c(OC)cc3C2)[C@H]2C(=O)O[C@H](c3ccccc3)[C@H](c3ccccc3)N2[C@@H]1c1ccc(O)cc1)C(=O)OC")
"1.93 (inactive)"
>>> result("O=C1C2C=CC(C(O)c3cccc4ccccc34)N(Nc3ccccc3)C2C(=O)N1c1ccccc1 (stereo not given)")
"2.06 (inactive)"
>>> result("O=C1O[C@@H](c2ccccc2)[C@@H](c2ccccc2)N2[C@@H](c3ccc(O)cc3)[C@]3(C(=O)Nc4ccc(C#CC5=CCCCC5)cc43)[C@@H](C(=O)Nc3nc4ccccc4s3)[C@H]12")
"1.36 (inactive)"
>>> result("CC1=C2[C@@H](CCc3ccccc3)OB(O)C[C@@H]2[C@@H]2C(=O)C=CC(=O)[C@@H]2C1")
"0.229 (inactive)"

Cited source: PubChem BioAssay
